# tested-system: T1, mfGITR.mmh (Macaca fasicularis)
# T1 construct: soluble monomeric construct; also called Macaca fasicularis (mf) GITR.mmh; cynomolgus GITR protein
# T1 chain: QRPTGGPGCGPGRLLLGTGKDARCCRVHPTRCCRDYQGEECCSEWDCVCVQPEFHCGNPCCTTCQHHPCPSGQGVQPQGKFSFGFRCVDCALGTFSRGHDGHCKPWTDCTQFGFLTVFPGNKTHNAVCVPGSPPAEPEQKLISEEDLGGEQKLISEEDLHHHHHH
# experiment: SPR 37C, mAb capture
result-type: Kd (nM)

[[record]]
binder = "H1H14486P (antibody, human IgG1, V domains shown, human IgG1 (H1H)) VH: QVQLVESGGGVVQPGRSLRLSCAASGFTFSNYGMHWVRQAPGKGLEWVAVIWYPGSNKFYTDSVEGRFTISRDNSKNTVYLQMDSLRAEDTAVYYCARGGALGVDYYYGMDVWGQGTTVTVSS VL: AIQMTQSPSSLSASVGDRVTLTCRASQGIRNDLGWYQQKPGKAPNFLIYSASSLQSGVPSRFSGSGSGTDFTLTISSLQPEDFATYYCLQNYNYPWTFGQGTKVEIK"
result_type = "Kd"
test_result = 122

[[record]]
binder = "H4H14521P (antibody, human IgG4, V domains shown, human IgG4 (H4H)) VH: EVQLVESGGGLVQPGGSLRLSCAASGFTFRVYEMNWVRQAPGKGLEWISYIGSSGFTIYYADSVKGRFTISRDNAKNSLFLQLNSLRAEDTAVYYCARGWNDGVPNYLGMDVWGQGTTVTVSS VL: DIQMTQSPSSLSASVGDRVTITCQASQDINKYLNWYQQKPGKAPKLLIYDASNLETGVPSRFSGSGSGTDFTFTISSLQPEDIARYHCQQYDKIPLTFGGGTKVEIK"
result_type = "Kd"
test_result = 20.1

[[record]]
binder = "H1H14520P (antibody, human IgG1, V domains shown, human IgG1 (H1H)) VH: QVQLVESGGGVVQPGRSLRLSCAASGFTFSSFGMHWVRQAPGKGLEWVAVISYDGRNRYYADSVKGRFTISRDNSKNTLYLQMNSLSAEDTAMFYCAKDGFGNSFDYWGQGTLVTVSS VL: DVVMTQSPLSLPVTLGQPASISCRSSQSLLYSDGNTYLTWFQQRPGQSPRRLIYKVSNRDSGVPDRFSGSGSGTDFTLTISRVEAEDVGIYYCMQGTHWPWTFGQGTKVEIK"
result_type = "Kd"
test_result = 85.9

[[record]]
binder = "H4H14469P (antibody, human IgG4, V domains shown, human IgG4 (H4H)) VH: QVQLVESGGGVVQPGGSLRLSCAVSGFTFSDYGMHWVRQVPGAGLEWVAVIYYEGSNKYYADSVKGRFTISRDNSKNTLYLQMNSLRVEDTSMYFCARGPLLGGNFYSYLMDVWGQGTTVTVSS VL: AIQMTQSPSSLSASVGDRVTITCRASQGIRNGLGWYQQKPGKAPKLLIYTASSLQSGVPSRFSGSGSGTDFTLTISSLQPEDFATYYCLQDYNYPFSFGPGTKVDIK"
result_type = "Kd"
test_result = 41.1

[[record]]
binder = "H1H14503P (antibody, human IgG1, V domains shown, human IgG1 (H1H)) VH: QVQLVESGGGVVQPGRSLRLSCEASGFTFSNYGFHWVRQAPGKGLDWVAVIWYAGSNKFYVDSVQGRFTISRDNSKQILFLQMNSLRAEDSAVYYCVRGGILGIDYYSGMDVWGQGTTVTVSS VL: AIQMTQSPSSLSASVGDRVTITCRASQDIRNDLGWYQQRPGKAPKFLIYSTSSLQSGVPSRFSGSGSGTDFILTISSLQPEDFATYYCLQSHNYPWTFGHGTKVEIK"
result_type = "Kd"
test_result = 20.9

